The measurements presented in this section are drawn from patent US9775902B2.

Tested on: vascular endothelial growth factor (VEGF)
Experiment: VEGF expression in Kelly neuroblastoma cells
Format: cell-based
// boundary case: VEGF Fold Increase equal to 4 maps to no; strictly smaller maps to yes

Task item: Determine if N#Cc1nc(C(=O)NCC(=O)O)c(O)c2ccc(Oc3ccc(F)cc3)cc12 [Compound R] shows VEGF Fold Increase strictly lower than 4.
Reply: no

Task item: Determine if O=C(O)CNC(=O)c1ncc2cc(Oc3ccc4c(c3)OCO4)ccc2c1O [Compound O] shows VEGF Fold Increase strictly lower than 4.
Reply: yes

Task item: Determine if O=C(O)CNC(=O)c1ncc2cc(Oc3ccccc3)ccc2c1O [Compound AC] shows VEGF Fold Increase strictly lower than 4.
Reply: no

Task item: Determine if O=C(O)CNC(=O)c1nc(Cl)c2ccsc2c1O [Compound L] shows VEGF Fold Increase strictly lower than 4.
Reply: yes

Task item: Determine if O=C(O)CNC(=O)c1ncc2cc(Sc3ccccc3)ccc2c1O [Compound E] shows VEGF Fold Increase strictly lower than 4.
Reply: no

Task item: Determine if Cc1nc2ccc(Oc3ccc4c(O)c(C(=O)NCC(=O)O)nc(C)c4c3)cc2o1 [Compound AF] shows VEGF Fold Increase strictly lower than 4.
Reply: yes

Task item: Determine if O=C(O)CNC(=O)c1ncc2cc(SC3CCCCC3)ccc2c1O [Compound V] shows VEGF Fold Increase strictly lower than 4.
Reply: no

Task item: Determine if Cc1nc2ccc(Oc3ccc4c(C#N)nc(C(=O)NCC(=O)O)c(O)c4c3)cc2o1 [Compound AQ] shows VEGF Fold Increase strictly lower than 4.
Reply: yes

###

Test system: erythropoietin (EPO)
Experiment: EPO expression in Kelly neuroblastoma cells
Assay type: cell-based
measurementLabel: EPO Fold Increase
The answer should be written as a number, with no unit following it.

Record for O=C(O)CNC(=O)c1nc2cc(-c3ccc(Cl)cc3)sc2cc1O under target or system erythropoietin (EPO): EPO Fold Increase reported as 2.80

Record for N#Cc1nc(C(=O)NCC(=O)O)c(O)c2cccc(Oc3ccccc3)c12 under target or system erythropoietin (EPO): EPO Fold Increase reported as 11.35

Record for N#Cc1nc(C(=O)NCC(=O)O)c(O)c2ccc(Cl)cc12 under target or system erythropoietin (EPO): EPO Fold Increase reported as 2.89

Record for Cc1cccc(C)c1Oc1ccc2c(C#N)nc(C(=O)NCC(=O)O)c(O)c2c1 under target or system erythropoietin (EPO): EPO Fold Increase reported as 11.31

###

System: erythropoietin
Test: Plasma EPO in mice after intravenous injection
Format: in vivo, Swiss Webster mice
Settings: iv, 4 h; mouse plasma, 20 mg/kg i.v., four hours after injection; read-out: EPO Fold Increase
Response key: condition met means fold induction at 20 mg/kg >= 10; condition not met means fold induction at 20 mg/kg < 10.

Task item: Hi team, for COc1ccc(Oc2ccc3c(O)c(C(=O)NCC(=O)O)ncc3c2)cc1 , is the recorded fold induction at 20 mg/kg at or above 10?
Reply: condition met

Task item: Hi team, for C#Cc1nc(C(=O)NCC(=O)O)c(O)c2ccsc12 , is the recorded fold induction at 20 mg/kg at or above 10?
Reply: condition met

Task item: Hi team, for O=C(O)CNC(=O)c1ncc2cc(Oc3ccc4c(c3)OCO4)ccc2c1O , is the recorded fold induction at 20 mg/kg at or above 10?
Reply: condition met

Task item: Hi team, for N#Cc1nc(C(=O)NCC(=O)O)c(O)c2cc(Oc3ccc4c(c3)CCO4)ccc12 , is the recorded fold induction at 20 mg/kg at or above 10?
Reply: condition met

Task item: Hi team, for N#Cc1nc(C(=O)NCC(=O)O)c(O)c2sccc12 , is the recorded fold induction at 20 mg/kg at or above 10?
Reply: condition met

Task item: Hi team, for CC(NC(=O)c1ncc2cc(Oc3ccccc3)ccc2c1O)C(=O)O (stereo not drawn) , is the recorded fold induction at 20 mg/kg at or above 10?
Reply: condition met

Task item: Hi team, for CCc1c(O)c(C(=O)NCC(=O)O)nc2cc(Cl)ccc12 , is the recorded fold induction at 20 mg/kg at or above 10?
Reply: condition not met

Task item: Hi team, for N#Cc1nc(C(=O)NCC(=O)O)c(O)c2ccc(Cc3ccccc3)cc12 , is the recorded fold induction at 20 mg/kg at or above 10?
Reply: condition met

Task item: Hi team, for N#Cc1nc(C(=O)NCC(=O)O)c(O)c2c(Oc3ccc(F)cc3)cccc12 , is the recorded fold induction at 20 mg/kg at or above 10?
Reply: condition met

Task item: Hi team, for O=C(O)CNC(=O)c1ncc2cc(Oc3ccc(F)cc3)ccc2c1O , is the recorded fold induction at 20 mg/kg at or above 10?
Reply: condition met

Task item: Hi team, for O=C(O)CNC(=O)c1ncc2cc(Oc3ccccc3)sc2c1O , is the recorded fold induction at 20 mg/kg at or above 10?
Reply: condition not met

Task item: Hi team, for O=C(O)CNC(=O)c1nc2cc(-c3ccc(Cl)cc3)sc2cc1O , is the recorded fold induction at 20 mg/kg at or above 10?
Reply: condition not met

###

Test system: VEGF
Experiment: Plasma VEGF in mice after oral gavage
Format: in vivo, Swiss Webster mice
Settings: mouse plasma, oral gavage 6-60 mg/kg, six hours
Response key: Yes means VEGF >= 40 pg/mL; No means VEGF < 40 pg/mL.

Task item: Hi team, for C#Cc1nc(C(=O)NCC(=O)O)c(O)c2ccsc12 , is the recorded VEGF at or above 40 pg/mL?
Reply: No

Task item: Hi team, for O=C(O)CNC(=O)c1ncc2cc(Oc3ccc4c(c3)CCO4)ccc2c1O , is the recorded VEGF at or above 40 pg/mL?
Reply: No

Task item: Hi team, for O=C(O)CNC(=O)c1ncc2cc(Sc3ccccc3)ccc2c1O , is the recorded VEGF at or above 40 pg/mL?
Reply: Yes

Task item: Hi team, for O=C(O)CNC(=O)c1ncc2cc(Oc3ccc(F)cc3)ccc2c1O , is the recorded VEGF at or above 40 pg/mL?
Reply: Yes

###

System: erythropoietin
Test: Plasma EPO in mice after intravenous injection
Type: in vivo, Swiss Webster mice
Details: iv, 4 h; mouse plasma, 20 mg/kg i.v., four hours after injection; read-out: EPO Fold Increase
Provide the recorded fold induction at 20 mg/kg for the entries that follow.
The answer should be written as a number, with no unit following it.

The reported value for N#Cc1nc(C(=O)NCC(=O)O)c(O)c2cccc(Oc3ccccc3)c12 [Compound W] in terms of fold induction at 20 mg/kg is 45.6

The reported value for O=C(O)CNC(=O)c1ncc2c(-c3ccc(F)cc3)c(-c3ccc(F)cc3)sc2c1O [Compound AJ] in terms of fold induction at 20 mg/kg is 2.53

The reported value for Cc1nc(C(=O)NCC(=O)O)c(O)c2cc(-c3ccc(F)cc3)sc12 [Compound P] in terms of fold induction at 20 mg/kg is 5.88

The reported value for O=C(O)CNC(=O)c1nc2cc(Cl)ccc2c(I)c1O [Compound T] in terms of fold induction at 20 mg/kg is 4.65

The reported value for N#Cc1nc(C(=O)NCC(=O)O)c(O)c2cc(Oc3ccc4c(c3)OCO4)ccc12 [Compound AN] in terms of fold induction at 20 mg/kg is 26.2

The reported value for Cc1nc2ccc(Oc3ccc4c(O)c(C(=O)NCC(=O)O)nc(C)c4c3)cc2o1 [Compound AF] in terms of fold induction at 20 mg/kg is 21.3

The reported value for COc1cccc(Oc2cccc3c(O)c(C(=O)NCC(=O)O)nc(C#N)c23)c1 [Compound AP] in terms of fold induction at 20 mg/kg is 20.1

The reported value for O=C(O)CNC(=O)c1nc(-c2ccoc2)c2ccsc2c1O [Compound AI] in terms of fold induction at 20 mg/kg is 1.96

The reported value for Cc1nc2ccc(Oc3ccc4c(O)c(C(=O)NCC(=O)O)ncc4c3)cc2o1 [Compound N] in terms of fold induction at 20 mg/kg is 70.2

The reported value for Cc1cccc(C)c1Oc1ccc2c(C#N)nc(C(=O)NCC(=O)O)c(O)c2c1 [Compound AL] in terms of fold induction at 20 mg/kg is 188

The reported value for O=Cc1nc(C(=O)NCC(=O)O)c(O)c2cc(Oc3ccccc3)ccc12 [Compound AK] in terms of fold induction at 20 mg/kg is 62.8

The reported value for Cc1nc2ccc(Oc3ccc4c(C#N)nc(C(=O)NCC(=O)O)c(O)c4c3)cc2o1 [Compound AQ] in terms of fold induction at 20 mg/kg is 23.8

The reported value for O=C(O)CNC(=O)c1nc(Cl)c2ccsc2c1O [Compound L] in terms of fold induction at 20 mg/kg is 14.6

The reported value for N#Cc1nc(C(=O)NCC(=O)O)c(O)c2ccc(Oc3ccc(F)cc3)cc12 [Compound R] in terms of fold induction at 20 mg/kg is 52.4

The reported value for N#Cc1nc(C(=O)NCC(=O)O)c(O)c2ccc(Cl)cc12 [Compound S] in terms of fold induction at 20 mg/kg is 40.8

The reported value for N#Cc1nc(C(=O)NCC(=O)O)c(O)c2c(Oc3ccccc3)cccc12 [Compound AM] in terms of fold induction at 20 mg/kg is 235

The reported value for O=C(O)CNC(=O)c1nc(Br)c2cc(Br)sc2c1O [Compound AD] in terms of fold induction at 20 mg/kg is 27.4

The reported value for O=C(O)CNC(=O)c1ncc2cc(Oc3ccccc3)ccc2c1O [Compound AC] in terms of fold induction at 20 mg/kg is 2940
